- measurementTarget: CHO cells over-expressing the EP3 receptor (Homo sapiens, UniProt P43115)
- Sequence (P43115 whole entry): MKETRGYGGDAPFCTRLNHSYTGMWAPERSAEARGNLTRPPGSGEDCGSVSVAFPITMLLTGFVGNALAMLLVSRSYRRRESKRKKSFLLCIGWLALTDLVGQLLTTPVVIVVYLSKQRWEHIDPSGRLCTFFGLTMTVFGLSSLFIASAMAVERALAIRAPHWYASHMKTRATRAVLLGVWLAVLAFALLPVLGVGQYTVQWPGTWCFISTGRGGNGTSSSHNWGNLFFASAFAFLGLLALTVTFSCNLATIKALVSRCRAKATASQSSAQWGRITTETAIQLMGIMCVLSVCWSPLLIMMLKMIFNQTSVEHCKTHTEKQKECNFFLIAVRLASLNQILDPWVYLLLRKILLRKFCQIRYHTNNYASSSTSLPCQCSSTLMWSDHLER
- assayOverview: CHO cell cAMP assay; EP3 cAMP antagonist dose response (sulprostone reference), HTRF
- protocolConditions: sulprostone 700 nM (EC80) and FSK 2 μM (EC70); read-out: CHO_cAMP IC50
- Protocol: Biological Example 2: CHO Cell cAMP Assay This assay monitored the cAMP generation in CHO cells over-expressing the EP3 receptor in the presence or absence of antagonist stimulated with Forskolin (FSK, CAS No. 66428-89-5) and a known EP3 Agonist (sulprostone, CAS No. 60325-46-4). For detection, a homogeneous competitive immunoassay (Time Resolved Fluorescence Energy Transfer (hTR-FRET)) was used. […] IC50 values were determined from a […] (Hill equation) of a single 11-point compound dosing. […]
valueType: IC50 (nM)

Take a look at these entries with their results.
molecule: O=C(NC/C(F)=C1\COCc2cnn(-c3ccc(C(F)(F)F)cc3)c21)NS(=O)(=O)c1ccc(Cl)cc1 [Compound #118]
measurementTarget: CHO cells over-expressing the EP3 receptor (Homo sapiens, UniProt P43115)
IC50 [nM]: 16000

molecule: O=C(NC/C(F)=C1\COCc2cnn(Cc3ccc(Cl)cc3Cl)c21)NS(=O)(=O)c1ccc(Cl)cc1 [Compound #83]
measurementTarget: CHO cells over-expressing the EP3 receptor (Homo sapiens, UniProt P43115)
IC50 [nM]: 266

molecule: O=C(NC/C(F)=C1\CCCc2cnn(Cc3ccc(C(F)(F)F)cc3)c21)NS(=O)(=O)c1cc(Cl)c(Cl)s1 [Compound #134]
measurementTarget: CHO cells over-expressing the EP3 receptor (Homo sapiens, UniProt P43115)
IC50 [nM]: 52

molecule: O=C(CC/C=C1\COCc2cnn(Cc3ccc(Cl)cc3Cl)c21)NS(=O)(=O)c1cc(Cl)c(Cl)s1 [Compound #57]
measurementTarget: CHO cells over-expressing the EP3 receptor (Homo sapiens, UniProt P43115)
IC50 [nM]: 3

molecule: O=C(NC/C(F)=C1\CCCCc2cnn(Cc3ccc(Cl)cc3Cl)c21)NS(=O)(=O)c1cc(Cl)c(Cl)s1 [Compound #120]
measurementTarget: CHO cells over-expressing the EP3 receptor (Homo sapiens, UniProt P43115)
IC50 [nM]: 12

A = O=C(NC/C=C1\CCCc2cnn(-c3cccc4ccccc34)c21)NS(=O)(=O)c1cc(Cl)c(Cl)s1 [Compound #78]
B = COc1ccccc1S(=O)(=O)NC(=O)NC/C=C1\COCc2cnn(Cc3ccc(Cl)cc3Cl)c21 [Compound #58]
C = COc1cccc(S(=O)(=O)NC(=O)NC/C=C2\COCc3cnn(Cc4ccc(Cl)cc4Cl)c32)c1 [Compound #63]
Problem: In this exercise, place the 3 molecules in ascending sequence of their recorded IC50. Answer by naming the labels in the order asked.
Result: A, C, B

====

- measurementTarget: EP3 membrane (EP3 receptor) (Homo sapiens, UniProt P43115)
- Construct: purchased Millipore HTS092M
- Sequence (P43115 whole entry): as above
- assayOverview: [3H]-PGE2 binding; EP3 competition binding (SPA)
valueType: Ki (nM)

smilesStr: COc1ccc(Br)cc1S(=O)(=O)NC(=O)CC/C=C1\CCCc2cnn(Cc3ccc(Cl)cc3Cl)c21
valueType: Ki
numericReadout: 6
--
smilesStr: Cc1nc(C)c(S(=O)(=O)NC(=O)NC/C(F)=C2\COCc3cnn(Cc4ccc(Cl)cc4Cl)c32)s1
valueType: Ki
numericReadout: 217
--
smilesStr: O=C(C/C(F)=C1\CCCc2cnn(Cc3ccc(Cl)cc3Cl)c21)NS(=O)(=O)c1cc(Cl)c(Cl)s1
valueType: Ki
numericReadout: 6

P = CN(C/C=C1\CCCc2cnn(Cc3ccc(Cl)cc3Cl)c21)C(=O)NS(=O)(=O)c1ccc(Cl)cc1
Q = O=C(NC/C(F)=C1\CCCc2onc(Cc3ccc(Cl)cc3Cl)c21)NS(=O)(=O)c1cc(Cl)c(Cl)s1
R = O=C(NC/C(F)=C1\CCCCc2cnn(Cc3ccc(Cl)cc3Cl)c21)NS(=O)(=O)c1cc(Cl)c(Cl)s1
S = O=C(C/C=C1\CCCc2cnn(Cc3ccc(Cl)cc3Cl)c21)NS(=O)(=O)c1cccs1
Problem: Sequence the entries by Ki, beginning with the highest number. Answer by naming the labels in the order asked.
Result: S, R, P, Q
(S: 280 nM, R: 10 nM, P: 6 nM, Q: 1 nM)

Cited source for all entries: patent US20210253562A1
